Please go through the items and note down their log10(Activity).
# target_of_assay: Putative nitroreductase (Staphylococcus saprophyticus subsp. saprophyticus (strain ATCC 15305 / DSM20229 / NCIMB 8711 / NCTC 7292 / S-41), UniProt Q4A0P1)
# Sequence (Q4A0P1 whole entry): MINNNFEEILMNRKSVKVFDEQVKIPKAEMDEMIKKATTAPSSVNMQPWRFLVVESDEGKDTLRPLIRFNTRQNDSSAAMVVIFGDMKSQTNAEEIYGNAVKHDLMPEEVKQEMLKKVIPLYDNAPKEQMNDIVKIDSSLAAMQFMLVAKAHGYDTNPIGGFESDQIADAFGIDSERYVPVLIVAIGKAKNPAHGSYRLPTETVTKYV
# procedure_summary: Substrate activity at Staphylococcus saprophyticus nitroreductase NtrB assessed as enzyme specific activity using NADH as cofactor in Tris-Cl buffer at pH 7.5 by HPLC analysis
# Format: ADME
In our notation, the value equals log10 of Activity in U/mg.

State the recorded log10(Activity) for every item in the following list.
1. O=[N+]([O-])c1cc([N+](=O)[O-])c(Nc2ccc(Cl)cc2)cc1Nc1ccc(Cl)cc1
2. O=C(CC(F)(F)F)Nc1cc(N2CCOCC2)c([N+](=O)[O-])cc1[N+](=O)[O-]
3. O=[N+]([O-])c1cc([N+](=O)[O-])c(Nc2ccc(S(=O)(=O)O)cc2)cc1Nc1ccc(S(=O)(=O)O)cc1
4. O=[N+]([O-])c1ccc(N2CCCCC2)c([N+](=O)[O-])c1

*A*
1: 0.76; 2: 0.00; 3: 0.33; 4: -0.31

*Q* Value lookup for log10(Activity); key = "O=[N+]([O-])c1cc([N+](=O)[O-])c(Nc2ccc(O)cc2)cc1Nc1ccc(O)cc1"
*A* 0.21
